Here, each record is paired with measured IC50 data.
System: A549
Test: Growth inhibition of human A549 cells after 72 hrs by SRB assay
Type: functional, cell-based
Conditions: A549, 72 h
measurementLabel: IC50 (µg/mL)

* CCN(Cc1ccc(OC)cc1)Cc1c(O)ccc2c(=O)cc(C)oc12 | 38.7
* COc1ccc(CN(Cc2ccc([N+](=O)[O-])cc2)Cc2c(O)ccc3c(=O)cc(C)oc23)cc1 | 24.5
* COc1ccc(CN(CCc2ccccc2)Cc2c(O)ccc3c(=O)cc(/C=C/c4ccccc4)oc23)cc1 | 17.9
* COc1ccc(CCN(Cc2ccccc2)Cc2c(O)ccc3c(=O)cc(C)oc23)cc1 | 16.6
* Cc1cc(=O)c2ccc(O)c(CN(CCc3ccccc3)Cc3ccccc3)c2o1 | 12.3
* COc1ccc(CN(Cc2ccc3ccccc3c2)Cc2c(O)ccc3c(=O)cc(C)oc23)cc1 | 6.01
* Cc1cc(=O)c2ccc(O)c(CN(CCc3ccccc3)Cc3ccc([N+](=O)[O-])cc3)c2o1 | 9.92
* CCN(CCc1ccccc1)Cc1c(O)ccc2c(=O)cc(C)oc12 | 32.7
* COc1ccc(CN(Cc2ccc(OC)cc2)Cc2c(O)ccc3c(=O)cc(C)oc23)cc1 | 62.5
* COc1ccc(CCN(Cc2ccccc2)Cc2c(O)ccc3c(=O)cc(C)oc23)cc1OC | 26.1
* Cc1cc(=O)c2ccc(O)c(CN(Cc3ccccc3)Cc3ccccc3)c2o1 | 11.9
* COc1ccc(CN(Cc2ccccc2)Cc2c(O)ccc3c(=O)cc(C)oc23)cc1 | 14.1
